The reader will find reported inhibition values listed item by item below.
molecular target: Aurora kinase C (Homo sapiens) (UniProt Q9UQB9); conditions: at 1 µM;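 note: reported value is a mean inhibition of Aurora-C from the GSK PKIS screening panel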
Sequence (Q9UQB9 whole entry): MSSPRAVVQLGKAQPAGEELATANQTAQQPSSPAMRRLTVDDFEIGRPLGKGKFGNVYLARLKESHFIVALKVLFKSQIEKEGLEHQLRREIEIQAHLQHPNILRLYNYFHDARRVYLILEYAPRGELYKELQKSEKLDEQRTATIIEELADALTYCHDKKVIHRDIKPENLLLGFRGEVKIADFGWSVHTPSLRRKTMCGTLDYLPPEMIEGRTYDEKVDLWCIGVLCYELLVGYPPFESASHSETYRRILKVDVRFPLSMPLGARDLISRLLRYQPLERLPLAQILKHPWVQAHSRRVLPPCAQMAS
Endpoint Name: inhibition (%)

1. COc1cc(Nc2ncc(-c3ccccc3)o2)cc(OC)c1OC; 71.8
2. COc1cccc(/C=N/Nc2ncnc3c2cnn3-c2cccc(OC)c2)c1; 3.9
3. Cc1nnc(-c2ccc(C)c(-c3ccc(C(=O)NCc4ccc(Cl)cc4)cc3)c2)o1; -9.49
4. CCc1nccc2c1nc(-c1nonc1N)n2CC; 5.21
5. COc1cc2ncn(-c3cc(OCc4cccs4)c(C(N)=O)s3)c2cc1OC; 10.1
6. NS(=O)(=O)c1ccc(Nc2cc(-c3ccc(O)c(F)c3)n[nH]2)cc1; 22.4
7. COc1ccc(-c2ccc3c(NC(=O)C4CC4)n[nH]c3n2)cc1; 8.55
8. CCc1cccc(CC)c1/C=C/c1cncc(C(=O)NC)c1; 11.7
9. COc1cc2ncn(-c3cc(OCc4ccccc4C(F)(F)F)c(C(C)=O)s3)c2cc1OC; 11.9
10. CCC(=O)Nc1ccc(C)c(-c2ccc(C(=O)NCC3CC3)cc2)c1; 3.82
11. N#Cc1ccc(Oc2nccc(-c3c(-c4ccc(F)cc4)ncn3C3CCNCC3)n2)cc1; 3.86
12. O=C(Nc1ccc(Oc2ccc3[nH]c(NC(=O)c4ccccc4)nc3c2)cc1)Nc1cc(C(F)(F)F)ccc1F; 40.8
13. NC(=O)c1ccc(Oc2nccc(-c3c(-c4ccc(F)cc4)ncn3C3CCNCC3)n2)cc1; 0.43
14. O=C(Nc1n[nH]c2cc(-c3ccccc3)ccc12)C1CC1; 9.67
15. NC(=O)Cc1ccccc1Oc1nccc(-c2c(-c3ccc(F)cc3)ncn2C2CCNCC2)n1; 8.16
16. COc1cc2ncn(-c3cc(OCCc4ccccc4)c(C(N)=O)s3)c2cc1OC; 8.14
17. CCS(=O)(=O)c1ccc(OC)c(Nc2ncc(-c3ccccc3Cl)o2)c1; -2.79
18. O=C(Nc1n[nH]c2cc(-c3cc(F)ccc3F)ccc12)C1CC1; 8.07
19. Fc1ccc(-c2ncn(C3CCNCC3)c2-c2ccnc(Oc3ccc(Oc4ccccc4)cc3)n2)cc1; 0.55
20. O=C(NCC1CC1)c1ccc(-c2cccc(C(=O)NC3CC3)c2)cc1; 11.8
21. Fc1ccc(-c2c(-c3ccncc3)nc3n2CCS3)cc1; -8.58

====

target: Cyclin-dependent kinase 2 (Homo sapiens) (UniProt P24941); settings: at 0.1 µM;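 note: mean inhibition of CDK2 in complex with cyclin E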
The reader will find reported inhibition values listed item by item below.
Endpoint Name: inhibition (%)

1. Fc1ccc(-c2ncn(C3CCNCC3)c2-c2ccnc(Oc3ccc4c(c3)OCO4)n2)cc1; 3.24
2. NC(=O)c1cc(-c2ccc(F)cc2)cc(-c2ccncc2)c1N; 2.49
3. COC(=O)Nc1nc2ccc(Sc3ccc(NC(=O)Nc4cc(C(F)(F)F)ccc4F)cc3)cc2[nH]1; 0.48
4. COc1ccc2cc(-c3c(-c4ccncc4)nc(-c4ccc(S(C)(=O)=O)cc4C)n3C)ccc2c1; 3.25
5. CCS(=O)(=O)c1ccc(OC)c(Nc2ncc(-c3cccc(-c4ccccc4F)c3)o2)c1; 0.27
6. O=C(Nc1n[nH]c2nc(-c3ccc(O)cc3)c(Br)cc12)C1CC1; 36.5
7. CN(C)CCOc1ccc(-c2cc(-c3ccc4c(c3)CCC4=NO)c(-c3ccncc3)o2)cc1; -0.38
8. C/C(Nc1ccc(S(N)(=O)=O)cc1)=C1/C(=O)Nc2ccccc21; 8.8
9. NC(=O)Cc1ccccc1Oc1nccc(-c2c(-c3ccc(F)cc3)ncn2C2CCNCC2)n1; 1.82
10. CN(c1ccc(NC(=O)Nc2c(Cl)cccc2Cl)cc1)c1ccnc(Nc2cccc(CS(C)(=O)=O)c2)n1; -0.54
11. COc1cccc(-n2cnc3c(N/N=C/c4ccncc4)ncnc32)c1; -3.22
12. NC(=O)c1ccc(Oc2nccc(-c3c(-c4ccc(F)cc4)ncn3C3CCNCC3)n2)cc1; 3.03
13. O=C(Nc1n[nH]c2cc(-c3ccccc3)ccc12)C1CC1; 4.57
14. CCS(=O)(=O)c1ccc(OC)c(Nc2ncc(-c3ccccc3Cl)o2)c1; -0.35
15. Fc1ccc(-c2c(-c3ccncc3)nc3n2CCS3)cc1; -1.42
16. O=C(Nc1n[nH]c2nc(-c3ccco3)ccc12)C1CC1; -0.16
17. c1ccc(-c2n[nH]cc2-c2ccnc(-c3ccc(OCCN4CCOCC4)cc3)c2)nc1; 4.78
18. FC(F)(F)c1cccc(Nc2nccc(-c3cnn4nc(-c5ccccc5)ccc34)n2)c1; 3.41
19. COc1cc(Nc2ncc(-c3ccccc3)o2)cc(OC)c1OC; 0.79
20. COc1ccc(C2=C(N3CCc4ccccc43)C(=O)NC2=O)cc1; 4.49
21. Fc1ccc(-c2nc3n(c2-c2ccncc2)CCS3)cc1; 0.41

====

biological target: Serine/threonine-protein kinase PLK1 (Homo sapiens); settings: at 0.1 µM;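 note: reported values are mean PLK1 inhibition, measured as part of the GSK PKIS profiling set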
Endpoint Name: inhibition (%)

1. CS(=O)(=O)CCNCc1ccc(-c2ccc3ncnc(Nc4ccc(OCc5ccccc5)c(Br)c4)c3c2)o1; 3.69
2. O=C(Nc1n[nH]c2cc(-c3cc(F)ccc3F)ccc12)C1CC1; 4.33
3. O=C(NCC1CC1)c1ccc(-c2cccc(C(=O)NC3CC3)c2)cc1; 1.33

====

biological target: Protein kinase C gamma type (Homo sapiens); settings: at 0.1 µM;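 note: values are mean percent inhibition of PKC gamma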
Endpoint Name: inhibition (%)

1) O=C(Nc1n[nH]c2cc(-c3cc(F)ccc3F)ccc12)C1CC1; 2.77
2) COc1cc2ncn(-c3cc(OCc4ccccc4C(F)(F)F)c(C(C)=O)s3)c2cc1OC; -0.98
3) COc1cccc(/C=N/Nc2ncnc3c2cnn3-c2cccc(OC)c2)c1; 3.43
4) COc1ccc(-c2ccc3c(NC(=O)C4CC4)n[nH]c3n2)cc1; 0.57
5) O=C(NCC1CC1)c1ccc(-c2cccc(C(=O)NC3CC3)c2)cc1; 4.6

====

molecular target: MAP kinase-activated protein kinase 3 (Homo sapiens) (UniProt Q16644); details: at 1 µM
Sequence (Q16644 whole entry, looked up): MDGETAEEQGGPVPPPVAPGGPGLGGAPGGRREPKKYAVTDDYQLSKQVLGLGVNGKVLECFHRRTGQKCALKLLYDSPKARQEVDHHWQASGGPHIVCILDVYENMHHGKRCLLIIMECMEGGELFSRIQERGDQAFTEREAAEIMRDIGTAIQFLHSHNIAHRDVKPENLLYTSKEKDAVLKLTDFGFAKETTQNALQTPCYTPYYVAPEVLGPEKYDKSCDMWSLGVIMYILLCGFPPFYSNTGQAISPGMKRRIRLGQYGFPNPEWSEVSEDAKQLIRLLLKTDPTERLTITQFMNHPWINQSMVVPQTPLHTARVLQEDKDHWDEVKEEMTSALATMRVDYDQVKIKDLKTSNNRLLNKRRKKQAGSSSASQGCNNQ
Description: GSK_PKIS: MAPKAPK3 mean inhibition at 1 uM [Nanosyn]
The reader will find reported inhibition values listed item by item below.
Endpoint Name: inhibition (%)

1) COc1cc(Nc2ncc3c(C)nc(-c4cccc(C(F)(F)F)c4)n3n2)cc(OC)c1OC; 5.16
2) O=C1Nc2ccccc2/C1=C/Nc1ccc(-n2cncn2)cc1; 3.15
3) COc1cc(N2CCN(C(C)C)CC2)ccc1Nc1nc(Nc2ccc(F)cc2C(=O)NC[C@@H](O)CO)c2cc[nH]c2n1; 4.3
4) CCS(=O)(=O)c1ccc(OC)c(Nc2ncc(-c3cccc(-c4ccccc4F)c3)o2)c1; 1.04
5) CCN(CC)Cc1ccc(Nc2nccc(-c3cnn4ncccc34)n2)cc1; 3.32
6) Cc1ccc(C(=O)NC(C)C)cc1-c1ccc(C(=O)NCC2CC2)cc1; 9.15

====

The reader will find reported inhibition values listed item by item below.
Target: Tyrosine-protein kinase JAK3 (Homo sapiens)
Sequence (whole entry): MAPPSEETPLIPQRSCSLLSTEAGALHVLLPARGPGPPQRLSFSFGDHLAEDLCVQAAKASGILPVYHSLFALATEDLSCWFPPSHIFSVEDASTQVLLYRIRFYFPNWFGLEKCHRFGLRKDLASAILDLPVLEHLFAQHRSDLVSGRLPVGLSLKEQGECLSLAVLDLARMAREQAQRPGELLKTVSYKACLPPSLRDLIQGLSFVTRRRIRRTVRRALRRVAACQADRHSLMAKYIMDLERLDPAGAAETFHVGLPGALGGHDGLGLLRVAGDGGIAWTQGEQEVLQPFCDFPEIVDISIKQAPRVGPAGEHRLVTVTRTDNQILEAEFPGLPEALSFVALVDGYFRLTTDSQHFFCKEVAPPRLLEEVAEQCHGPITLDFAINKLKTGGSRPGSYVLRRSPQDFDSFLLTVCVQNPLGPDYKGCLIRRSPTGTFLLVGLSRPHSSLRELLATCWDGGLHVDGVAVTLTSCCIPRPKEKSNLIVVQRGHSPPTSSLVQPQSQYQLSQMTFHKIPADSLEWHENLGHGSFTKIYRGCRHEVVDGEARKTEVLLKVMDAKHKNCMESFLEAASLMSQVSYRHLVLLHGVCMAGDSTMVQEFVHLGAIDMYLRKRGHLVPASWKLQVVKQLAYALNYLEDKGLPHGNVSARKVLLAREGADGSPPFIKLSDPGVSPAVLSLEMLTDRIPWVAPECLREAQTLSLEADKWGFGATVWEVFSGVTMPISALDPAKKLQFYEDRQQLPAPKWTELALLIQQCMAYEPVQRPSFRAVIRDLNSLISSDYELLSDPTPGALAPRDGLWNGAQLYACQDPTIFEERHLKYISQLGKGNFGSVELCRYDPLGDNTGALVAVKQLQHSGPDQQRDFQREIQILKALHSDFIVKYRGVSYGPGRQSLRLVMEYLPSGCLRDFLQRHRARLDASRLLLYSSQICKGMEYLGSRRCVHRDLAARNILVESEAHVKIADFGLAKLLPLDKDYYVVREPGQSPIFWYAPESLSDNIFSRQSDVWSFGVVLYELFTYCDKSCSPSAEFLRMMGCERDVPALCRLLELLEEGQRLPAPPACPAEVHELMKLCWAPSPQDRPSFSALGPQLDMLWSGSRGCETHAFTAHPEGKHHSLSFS
Conditions: at 1 µM
Description: GSK_PKIS: JAK3 mean inhibition at 1 uM [Nanosyn]
Endpoint Name: inhibition (%)

1. CCS(=O)(=O)c1ccc(OC)c(Nc2ncc(-c3ccccc3Cl)o2)c1; 4.04
2. COc1cc(Nc2ncc3c(C)nc(-c4cccc(Oc5ccccc5)c4)n3n2)cc(OC)c1OC; 1.74
3. COc1ccc(-c2ccc3c(NC(=O)C4CC4)n[nH]c3n2)cc1; 0.12
4. CN1CCN(CCCNc2nc3ccc(Oc4ccc(NC(=O)Nc5cc(C(F)(F)F)ccc5F)cc4)cc3[nH]2)CC1; 0.29
5. Cc1ccc(C(=O)NC2CCC2)cc1-c1ccc(C(=O)NCC2CC2)cc1; 1.06
6. O=C(Nc1n[nH]c2nc(-c3ccc(O)cc3)c(Br)cc12)C1CC1; 62.2
7. COc1cc(Nc2ncc(-c3ccccc3)o2)cc(OC)c1OC; 12.7
8. NS(=O)(=O)c1ccc(N/N=C2\C(=O)Nc3ccc(-c4cnco4)cc32)cc1; 24.1
9. c1ccc(Oc2ccc(Nc3ncc(-c4ccccc4)o3)cc2)cc1; 4.13
10. COc1cc2ncn(-c3cc(OCCc4ccccc4)c(C(N)=O)s3)c2cc1OC; -0.4
11. CCC(=O)Nc1ccc(C)c(-c2ccc(C(=O)NCC3CC3)cc2)c1; -0.85
12. O=C1Nc2ccc(I)cc2C1=Cc1cc(Br)c(O)c(Br)c1; -3.69
13. COc1cc(Nc2ncc3c(C)nc(-c4cccc(C(F)(F)F)c4)n3n2)cc(OC)c1OC; 4.91
14. Fc1ccc(-c2ncn(C3CCNCC3)c2-c2ccnc(Oc3ccc(F)c(F)c3)n2)cc1; -1.81
15. COc1cc(N2CCN(C(C)C)CC2)ccc1Nc1nc(Nc2ccc(F)cc2C(=O)NC[C@@H](O)CO)c2cc[nH]c2n1; -8.11
16. COc1cc2ncn(-c3cc(OCc4cccs4)c(C(N)=O)s3)c2cc1OC; -0.29
17. Fc1ccc(-c2ncn(C3CCNCC3)c2-c2ccnc(Oc3ccc(Oc4ccccc4)cc3)n2)cc1; 0.1
18. CN(C)CCCNc1nccc(-c2c(-c3ccc(F)cc3)nn3cc(C(F)(F)F)ccc23)n1; -1.89
19. C#Cc1cccc(Nc2ncnc3ccc(OCCCCNCCS(C)(=O)=O)cc23)c1; -3.57
20. CCc1ccc(Oc2nccc(-c3c(-c4ccc(F)cc4)ncn3C3CCNCC3)n2)cc1; -0.22
